Tested on: Ctenocephalides felis
Description: b) Ctenocephalides felis Adulticide Assay: C. felis Single Dose Screen Mortality of fleas was the primary endpoint in the assay. Fleas were considered dead if they didn't move or were on their sides and unable to walk or right themselves. […] The concentration chosen (1.26 μg/cm^2) was higher than that known to kill 90% of cat fleas (LC90) using the reference compound, permethrin. The test species was the cat flea (Ctenocephalides felis). […]
MEASURED_PROPERTY: C. felis Mortality (%) 8 h

{"COMPOUND": "CCC(=NN1CCCCCC1)c1cc(Cl)ccc1NS(=O)(=O)C(F)(F)F [Compound 131]", "RESULT": "43%"}
{"COMPOUND": "CC(=Nn1cnc2ccccc2c1=O)c1cc(Cl)ccc1NS(=O)(=O)C(F)(F)F [Compound 186]", "RESULT": "2%"}
{"COMPOUND": "CC(=NNC(=O)Nc1ccccc1)c1cc(Cl)ccc1NS(=O)(=O)C(F)(F)F [Compound 90]", "RESULT": "3%"}
{"COMPOUND": "CCCN(N=C(C)c1cc(Cl)ccc1NS(=O)(=O)C(F)(F)F)c1c(Cl)cccc1Cl [Compound 103]", "RESULT": "56%"}
{"COMPOUND": "CCC(=NN(C)C(=O)c1ccc(Cl)cc1Cl)c1cc(Cl)ccc1NS(=O)(=O)C(F)(F)F [Compound 82]", "RESULT": "98%"}

---

Reported values of C. felis Mortality (%) 8 h for individual entries
system: Ctenocephalides felis
MEASURED_PROPERTY: C. felis Mortality (%) 8 h

{"MOLECULE": "CC(=NN(C)C(=O)c1ccc(Cl)cc1Cl)c1cc(Cl)ccc1NS(=O)(=O)C(F)(F)F [Compound 62]", "MEASURED_PROPERTY": "C. felis Mortality (%) 8 h", "NUMBER": 100}
{"MOLECULE": "CC(=NN(C)c1ncccn1)c1cc(Cl)ccc1NS(=O)(=O)C(F)(F)F [Compound 190]", "MEASURED_PROPERTY": "C. felis Mortality (%) 8 h", "NUMBER": 2}
{"MOLECULE": "CC(=NN(C)c1ccc(Cl)c(Cl)c1)c1cc(Cl)ccc1NS(=O)(=O)C(F)(F)F [Compound 96]", "MEASURED_PROPERTY": "C. felis Mortality (%) 8 h", "NUMBER": 19}
{"MOLECULE": "CC(=O)N(N=C(C)c1cc(Cl)ccc1NS(=O)(=O)C(F)(F)F)c1ccccc1 [Compound 183]", "MEASURED_PROPERTY": "C. felis Mortality (%) 8 h", "NUMBER": 2}
{"MOLECULE": "CN(N=C1CCCc2cccc(NS(=O)(=O)C(F)(F)F)c21)c1ccccc1 [Compound 219]", "MEASURED_PROPERTY": "C. felis Mortality (%) 8 h", "NUMBER": 0}
{"MOLECULE": "C/C(=N\\N(CCC#N)C(=O)c1ccccc1)c1cc(Cl)ccc1NS(=O)(=O)C(F)(F)F [Compound 222]", "MEASURED_PROPERTY": "C. felis Mortality (%) 8 h", "NUMBER": 5}
{"MOLECULE": "CC(=NN(Cc1ccccc1)c1ccccc1)c1cc(Cl)ccc1NS(=O)(=O)C(F)(F)F [Compound 22]", "MEASURED_PROPERTY": "C. felis Mortality (%) 8 h", "NUMBER": 98}
{"MOLECULE": "C/C(=N\\N(C)C1CCCCC1)c1cc(Cl)ccc1NS(=O)(=O)C(F)(F)F [Compound 215]", "MEASURED_PROPERTY": "C. felis Mortality (%) 8 h", "NUMBER": 8}
{"MOLECULE": "CCCN(N=C(C)c1cc(Cl)ccc1NS(=O)(=O)C(F)(F)F)c1ccc(F)cc1 [Compound 104]", "MEASURED_PROPERTY": "C. felis Mortality (%) 8 h", "NUMBER": 16}
{"MOLECULE": "CC(=NN(C)c1ccc(Br)cc1)c1cc(Cl)ccc1NS(=O)(=O)C(F)(F)F [Compound 63]", "MEASURED_PROPERTY": "C. felis Mortality (%) 8 h", "NUMBER": 100}
{"MOLECULE": "CC(=NN1CCOC1=O)c1cc(Cl)ccc1NS(=O)(=O)C(F)(F)F [Compound 23]", "MEASURED_PROPERTY": "C. felis Mortality (%) 8 h", "NUMBER": 100}
{"MOLECULE": "CCN(N=C(C)c1cc(Cl)ccc1NS(=O)(=O)C(F)(F)F)C(=O)OC [Compound 139]", "MEASURED_PROPERTY": "C. felis Mortality (%) 8 h", "NUMBER": 97}
{"MOLECULE": "CCN(N=C(C)c1cc(Cl)ccc1NS(=O)(=O)C(F)(F)F)c1cc(Cl)cc(Cl)c1 [Compound 70]", "MEASURED_PROPERTY": "C. felis Mortality (%) 8 h", "NUMBER": 95}
{"MOLECULE": "CCN(N=C(C)c1cc(Cl)ccc1NS(=O)(=O)C(F)(F)F)c1ccc(Cl)c(Cl)c1 [Compound 71]", "MEASURED_PROPERTY": "C. felis Mortality (%) 8 h", "NUMBER": 94}
{"MOLECULE": "CC(=NN(c1ccc(F)cc1)C(C)C)c1cc(Cl)ccc1NS(=O)(=O)C(F)(F)F [Compound 48]", "MEASURED_PROPERTY": "C. felis Mortality (%) 8 h", "NUMBER": 95}
{"MOLECULE": "CC(=NN(C)c1cnccn1)c1cc(Cl)ccc1NS(=O)(=O)C(F)(F)F [Compound 206]", "MEASURED_PROPERTY": "C. felis Mortality (%) 8 h", "NUMBER": 7}

---

Test system: Ctenocephalides felis
Settings: 8 h; data from laboratory 1
Method: b) Ctenocephalides felis Adulticide Assay: C. felis Single Dose Screen Mortality of fleas was the primary endpoint in the assay. Fleas were considered dead if they didn't move or were on their sides and unable to walk or right themselves. […] The concentration chosen (1.26 μg/cm^2) was higher than that known to kill 90% of cat fleas (LC90) using the reference compound, permethrin. The test species was the cat flea (Ctenocephalides felis). […]
The reader will find reported C. felis Mortality (%) 8 h values listed item by item below.
MEASURED_PROPERTY: C. felis Mortality (%) 8 h

{"COMPOUND": "CC(=NNc1ccc(C)cc1)c1cc(Cl)ccc1NS(=O)(=O)C(F)(F)F [Compound 155]", "TARGET_UNDER_TEST": "Ctenocephalides felis", "NUMBER": 7}
{"COMPOUND": "CCCN(N=C(C)c1cc(Cl)ccc1NS(=O)(=O)C(F)(F)F)c1cc(Cl)ccc1Cl [Compound 143]", "TARGET_UNDER_TEST": "Ctenocephalides felis", "NUMBER": 13}
{"COMPOUND": "CCC(=O)N(CCC#N)/N=C(\\C)c1cc(Cl)ccc1NS(=O)(=O)C(F)(F)F [Compound 225]", "TARGET_UNDER_TEST": "Ctenocephalides felis", "NUMBER": 2}
{"COMPOUND": "CCN(N=C(C)c1ccccc1NS(=O)(=O)C(F)(F)F)c1ccc(Cl)cc1 [Compound 182]", "TARGET_UNDER_TEST": "Ctenocephalides felis", "NUMBER": 5}
{"COMPOUND": "CC(=NN(C)c1ccccc1)c1cc(NS(=O)(=O)C(F)(F)F)ccc1Cl [Compound 162]", "TARGET_UNDER_TEST": "Ctenocephalides felis", "NUMBER": 8}
{"COMPOUND": "CN(N=C(c1ccccc1)c1cc(Cl)ccc1NS(=O)(=O)C(F)(F)F)c1ccccc1 (single isomer, unassigned) [Compound 117]", "TARGET_UNDER_TEST": "Ctenocephalides felis", "NUMBER": 12}
{"COMPOUND": "CC(=NN(C)c1ccccc1C(F)(F)F)c1cc(Cl)ccc1NS(=O)(=O)C(F)(F)F [Compound 204]", "TARGET_UNDER_TEST": "Ctenocephalides felis", "NUMBER": 6}
{"COMPOUND": "CC(=NN(c1ccc(C)cc1)C(C)C)c1cc(Cl)ccc1NS(=O)(=O)C(F)(F)F [Compound 102]", "TARGET_UNDER_TEST": "Ctenocephalides felis", "NUMBER": 3}

---

test system: Ctenocephalides felis

{"MOLECULE": "CCN(N=C(C)c1cc(Cl)ccc1NS(=O)(=O)C(F)(F)F)c1ccccc1F [Compound 43]", "TARGET_UNDER_TEST": "Ctenocephalides felis", "C. felis Mortality (%) 24 h": 90}
{"MOLECULE": "C/C(=N\\N(C)C1CCCC1)c1cc(Cl)ccc1NS(=O)(=O)C(F)(F)F [Compound 211]", "TARGET_UNDER_TEST": "Ctenocephalides felis", "C. felis Mortality (%) 24 h": 85}
{"MOLECULE": "CCC(=NN1CCCCCC1)c1cc(Cl)ccc1NS(=O)(=O)C(F)(F)F [Compound 131]", "TARGET_UNDER_TEST": "Ctenocephalides felis", "C. felis Mortality (%) 24 h": 100}
{"MOLECULE": "C#CCN(c1ccc(Cl)cc1C(C)=NN1CCCCC1)S(=O)(=O)C(F)(F)F [Compound 133]", "TARGET_UNDER_TEST": "Ctenocephalides felis", "C. felis Mortality (%) 24 h": 66}
{"MOLECULE": "CC(=NN(c1ccc(Cl)cc1)C(C)C)c1cc(Cl)ccc1NS(=O)(=O)C(F)(F)F [Compound 33]", "TARGET_UNDER_TEST": "Ctenocephalides felis", "C. felis Mortality (%) 24 h": 86}
{"MOLECULE": "CN(N=C1CCCc2cccc(NS(=O)(=O)C(F)(F)F)c21)c1ccccc1 [Compound 219]", "TARGET_UNDER_TEST": "Ctenocephalides felis", "C. felis Mortality (%) 24 h": 2}
{"MOLECULE": "CCCN(N=C(C)c1cc(Cl)ccc1NS(=O)(=O)C(F)(F)F)c1ccc(F)cc1 [Compound 104]", "TARGET_UNDER_TEST": "Ctenocephalides felis", "C. felis Mortality (%) 24 h": 100}
{"MOLECULE": "CC(=NN(C)c1cccc(F)c1)c1cc(Cl)ccc1NS(=O)(=O)C(F)(F)F [Compound 74]", "TARGET_UNDER_TEST": "Ctenocephalides felis", "C. felis Mortality (%) 24 h": 100}
